- Subject Of Test: UniProtKB P28907
- Sequence (P28907 whole entry): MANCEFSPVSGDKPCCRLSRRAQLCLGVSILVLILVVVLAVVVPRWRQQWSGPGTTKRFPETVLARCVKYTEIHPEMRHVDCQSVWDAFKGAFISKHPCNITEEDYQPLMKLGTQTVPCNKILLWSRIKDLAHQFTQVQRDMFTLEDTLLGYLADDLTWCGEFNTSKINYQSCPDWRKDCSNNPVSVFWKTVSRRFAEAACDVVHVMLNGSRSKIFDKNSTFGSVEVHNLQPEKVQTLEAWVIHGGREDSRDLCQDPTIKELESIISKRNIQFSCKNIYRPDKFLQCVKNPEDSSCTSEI
- Assay Summary: human recombinant CD38 enzyme assay (hydrolysis of NAD+)
- Condition: human recombinant CD38, 0.4 nM enzyme, 62.5 μM NAD+; read-out: hCD38 BioChem IC50
Records here are stratified by IC50; strata: lower band (below 8 nM), central band (8 nM to below 30 nM), upper band (30 nM or more)

Compound: Cn1cncc1-c1nc(C(=O)N[C@H]2CCc3c(F)cccc32)cc(C2CCOCC2)n1
Class: central band

Compound: COCCO[C@@H]1CC[C@@H](NC(=O)c2nccc(-c3cncn3C)n2)C1
Class: upper band

Compound: O=C(Nc1cncc(F)c1)c1cc(-n2ccnc2)ccn1
Class: upper band

Compound: Cn1cncc1-c1ccnc(C(=O)N[C@H]2CC[C@H](O)C2)n1
Class: upper band

Compound: CO[C@H]1CC[C@H](NC(=O)c2cc(C3(C)COC3)nc(-c3cncn3C)n2)CC1
Class: central band

Compound: CCO[C@H]1C[C@H](NC(=O)c2nccc(-c3cncn3C)n2)C1
Class: upper band

Compound: Cn1cncc1-c1nccc(C(=O)Nc2ccc(C(F)(F)F)nc2)n1
Class: lower band

Compound: Cn1cncc1-c1nc(C(=O)N[C@H]2C[C@H](Oc3ccccc3)C2)cc(C2CCOCC2)n1
Class: lower band

Compound: COc1cc(-n2ccnc2)nc(C(=O)Nc2ccc(C(F)F)nc2)n1
Class: lower band

Compound: O=C(NC1CC2C(C1)C2(F)F)c1cccc(-n2ccnc2)n1 (stereo not drawn)
Class: upper band

Compound: CO[C@H]1CC[C@H](NC(=O)c2cc(C3(O)CCC(F)(F)CC3)nc(-c3cncn3C)n2)CC1
Class: central band

Compound: Cn1cncc1-c1nc(C(=O)N[C@H]2CC[C@H](OCC(F)(F)F)CC2)cc(C2CCC(F)(F)CC2)n1
Class: central band

Compound: Cn1cncc1-c1nc(C(=O)N[C@H]2CC[C@H](O)CC2)cc(C2CCC(F)(F)CC2)n1
Class: central band

Compound: CO[C@H]1CC[C@H](NC(=O)c2cc(C)nc(-c3cncn3C)n2)CC1
Class: central band

Compound: Cc1ccc(NC(=O)c2cc(-n3ccnc3)ccn2)cn1
Class: upper band

Compound: Cn1cncc1-c1nc(C(=O)N[C@H]2C[C@H](c3ccccc3)C2)cc(C2CCOCC2)n1
Class: lower band

Compound: CO[C@H]1CC[C@H](NC(=O)c2nc(-c3cncn3C)cc(C3CC3)n2)CC1
Class: upper band

Compound: Cn1cncc1-c1nc(C(=O)Nc2ccc(C(F)F)nc2)cc(C2CCC2)n1
Class: lower band

Compound: Cc1cc(C(=O)NC2CC3(C2)CC(F)(F)C3)nc(-c2cncn2C)n1
Class: central band

Compound: O=C(N[C@H]1CC[C@H](C(F)F)CC1)c1ccnc(-n2ccnc2)n1
Class: central band

Compound: Cn1cncc1-c1cc(C2CC2)nc(C(=O)Nc2ccc(C(F)F)nc2)n1
Class: lower band

Compound: CO[C@H]1CC[C@H](NC(=O)c2cc(C(C)C)nc(-c3cncn3C)n2)CC1
Class: central band

Compound: O=C(N[C@H]1CC[C@H](C(F)F)CC1)c1cc(C(F)(F)F)nc(-n2ccnc2)n1
Class: upper band

Compound: COCCOc1cc(-c2cncn2C)nc(C(=O)Nc2ccc(C(F)(F)F)nc2)n1
Class: lower band
